# assay: E. coli acrAB mutant growth effects, primary screen, E. coli filamentation inducers, strain DRC39, OD650, 48 h (AID 1179);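 further: screen aims at cell division blockers that make cells filament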
# condition label: E. coli DRC39 delta-acrAB growth, higher = more signal, called active from +8 up or from −8 down
Calls of active or inactive are those of the source.
Measured z-score, listed per entry for reference.
readout name: z-score

compound	readout name	measured value
COCCOC(=O)N1C(=O)[C@@]2(c3cc(C#Cc4ccc(OC)cc4)ccc31)[C@H](C(=O)N1CCCCCCC1)[C@H]1C(=O)O[C@H](c3ccccc3)[C@H](c3ccccc3)N1[C@@H]2c1ccc(OCCO)cc1	z-score	2.25 (inactive)
COCCOC(=O)N1C(=O)[C@@]2(c3cc(C#CC4(O)CCCCCC4)ccc31)[C@H](c1ccc(O)cc1)N1[C@H](c3ccccc3)[C@H](c3ccccc3)OC(=O)[C@H]1[C@@H]2C(=O)Nc1nc2ccccc2s1	z-score	0.208 (inactive)
CCCC[C@@H]1C[C@H]1[C@@H](NC(=O)c1ccco1)c1ccc(Cl)cc1	z-score	0.16 (inactive)
CCCC=C(CCC)[C@@H](NC(=O)Oc1ccc(F)cc1)c1ccc(C(=O)OC)cc1	z-score	0.0821 (inactive)
COCCCN1C(=O)[C@@]2(Cc3ccccc31)c1ccccc1C(=O)N(Cc1ccccc1C(F)(F)F)[C@H]2c1ccc(CO)cc1	z-score	-0.297 (inactive)
COc1ccc(C(=O)O[C@H]2CC[C@]3(C)C4=C(CCC3C2(C)C)[C@]2(C)CC[C@H]([C@H](C)CCCC(C)C)[C@@]2(C)CC4)cc1 (stereo not given in full)	z-score	1.11 (inactive)
CC(CO)N1C(=O)[C@@H]2C3C(=O)OCCC/C=C\[C@H]3OC23C=CCN(c2ccc4ccccc4c2)C(=O)[C@@H]13 (stereo not given in full)	z-score	0.703 (inactive)
C=CC[C@]1(C(=O)N2CCCCC2)N=C(c2ccc(OCCCO)cc2)O[C@H]1c1ccccc1	z-score	-0.189 (inactive)
COCCOC(=O)N1C(=O)[C@@]2(c3ccccc31)[C@H](c1ccc(O)cc1)N1[C@H](c3ccccc3)[C@H](c3ccccc3)OC(=O)[C@H]1[C@@H]2C(=O)NC[C@H](O)c1ccccc1	z-score	-1.29 (inactive)
CCCCCC1=C2CNC(CCC)(C(=O)OC)C=C2C(C)C1=O (stereo not given)	z-score	0.56 (inactive)
C=CC[C@@]1(C(=O)NCc2ccccc2)N=C(c2ccc(OCCCO)cc2)O[C@@H]1c1ccccc1N=[N+]=[N-]	z-score	-0.899 (inactive)
COc1ccc([Si](C)(C)[C@@H]2[C@@H](CCO)O[C@]3(C(=O)N(Cc4ccc(N5C(=O)COc6ccccc65)cc4)c4ccccc43)[C@H]2C)cc1	z-score	-0.639 (inactive)
O=C1C2C=CC(C(O)c3ccc(F)cc3)N(Nc3ccccc3F)C2C(=O)N1c1ccccc1 (stereo not given)	z-score	-0.184 (inactive)
CC(C)(C)OC(=O)CC[C@@]1(C(N)=O)N=C(c2ccc(OCCCO)cc2)O[C@@H]1c1ccccc1	z-score	-1.12 (inactive)
CC(=O)N1Cc2ccccc2C[C@@]2(COC(c3ccc(OCCCO)cc3)=N2)C1=O	z-score	2.3 (inactive)

====

# system tested: NADPH oxidase 4 (Homo sapiens) (UniProt Q9NPH5)
# Sequence (Q9NPH5 whole entry, looked up): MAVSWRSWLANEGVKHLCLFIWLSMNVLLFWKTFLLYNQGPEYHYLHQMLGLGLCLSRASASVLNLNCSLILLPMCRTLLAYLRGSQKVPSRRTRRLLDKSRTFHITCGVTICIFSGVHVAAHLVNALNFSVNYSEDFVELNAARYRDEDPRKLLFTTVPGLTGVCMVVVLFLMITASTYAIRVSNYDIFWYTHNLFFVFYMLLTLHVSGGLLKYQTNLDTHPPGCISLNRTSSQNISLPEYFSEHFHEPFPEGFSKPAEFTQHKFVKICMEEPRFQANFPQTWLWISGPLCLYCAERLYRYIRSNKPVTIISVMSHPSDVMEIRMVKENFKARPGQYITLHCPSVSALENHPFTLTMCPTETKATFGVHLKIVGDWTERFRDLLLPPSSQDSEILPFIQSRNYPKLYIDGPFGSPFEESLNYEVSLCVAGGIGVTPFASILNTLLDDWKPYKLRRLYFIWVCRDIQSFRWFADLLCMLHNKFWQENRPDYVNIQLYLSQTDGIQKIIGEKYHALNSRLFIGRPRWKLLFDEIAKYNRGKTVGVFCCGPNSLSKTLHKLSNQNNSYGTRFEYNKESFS
# assay: NOX4-dependent H2O2 signal modulators, primary screen, NOX inhibitor project, cell-based, HEK293-NOX4, tetracycline-induced, Amplex Red fluorescence (AID 1160)
# condition label: 45 min, higher = more signal, called active from +8 up or from −8 down
Calls of active or inactive are those of the source.
z-score values, listed per item

compound	system tested	z-score
C=CCOC(=O)[C@@H]1[C@H]2C(=O)O[C@H](c3ccccc3)[C@H](c3ccccc3)N2[C@H](c2ccc(OCCOC(=O)[C@@H]3C[C@@H]4C(=O)N[C@@H](Cc5ccccc5)C(=O)N4[C@@H]3c3ccc(O)cc3)cc2)[C@@]12C(=O)Nc1ccc(I)cc12	NADPH oxidase 4 (Homo sapiens) (UniProt Q9NPH5)	0.304 (inactive)
COC(=O)[C@@]1(Cc2ccc(F)cc2)[C@H]2c3cc(C(=O)N4CCCC4)n(Cc4cc(C)n(C)n4)c3C[C@H]2CN1C(=O)c1ccccc1	NADPH oxidase 4 (Homo sapiens) (UniProt Q9NPH5)	0.368 (inactive)
CCOC(=O)[C@H]1CC=C2CC1C(=O)N1CCC[C@@H]1[C@@H]2O[Si](C)(C)C(C)(C)C (stereo not given in full)	NADPH oxidase 4 (Homo sapiens) (UniProt Q9NPH5)	-0.625 (inactive)
O=C1NC(=O)C2C1C=CC(C(O)c1cccc3ccccc13)N2Nc1ccccn1 (stereo not given)	NADPH oxidase 4 (Homo sapiens) (UniProt Q9NPH5)	-2.83 (inactive)
Cc1ccc(C(C)CC(O)C2C=CC3C(=O)N(C)C(=O)C3N2NC(=O)OC(C)(C)C)o1 (stereo not given)	NADPH oxidase 4 (Homo sapiens) (UniProt Q9NPH5)	-0.202 (inactive)

====

# system tested: NADPH oxidase 4 (Homo sapiens)
# assay: NOX4-dependent H2O2 signal modulators, primary screen, NOX inhibitor project, cell-based, HEK293-NOX4, tetracycline-induced, Amplex Red fluorescence (AID 1160)
# condition label: 45 min, higher = more signal, called active from +8 up or from −8 down
As shown below, each of these compounds has a reported z-score value.

compound	z-score
O=C1OCCC/C=C\[C@H]2OC34C=CCN(Cn5nnc6ccccc65)C(=O)[C@H]3N(CCO)C(=O)[C@@H]4C12 (some centres undefined)	0.409
COCCCNC(=O)[C@@]1(Cc2ccccc2)N=C(c2ccc(OCCCO)cc2)O[C@H]1c1ccccc1	1.11
C=CCNC(=O)[C@@H]1[C@H]2C(=O)O[C@H](c3ccccc3)[C@H](c3ccccc3)N2[C@H](c2ccc(OCCO)cc2)[C@@]12C(=O)Nc1ccc(C#CCCO)cc12	0.442
COC(=O)c1c(CC[C@@H](CO)NC(=O)N2CCC[C@H]2Cn2cc(-c3ccccn3)nn2)oc(C(C)=O)c1C(=O)OC	-1.44

====

# Test system: Noggin (protein binding on small-molecule microarray)
# assay: Noggin binders on small-molecule microarray, primary screen, biochemical, 635/667 nm fluorescence (AID 1095);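 further: score merges 667 nm feature fluorescence with signal to noise over triplicate slides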
# condition label: 635 nm fluorescence, higher = more signal
Rule: composite z-score under 0.3 gives FALSE, otherwise TRUE.

compound	label class
CN(C)CCCNC(=O)[C@@]1(C)c2ccccc2C(=O)N(Cc2cc(F)cc(C(F)(F)F)c2)[C@H]1c1ccc(CO)cc1	FALSE
COc1cc2c(cc1OC)CN(C(=O)[C@H]1[C@@H]3C(=O)O[C@@H](c4ccccc4)[C@@H](c4ccccc4)N3[C@@H](c3ccc(O)cc3)[C@]13C(=O)Nc1ccc(C#CC4=CCCCC4)cc13)CC2	TRUE
COCCOC(=O)N1C(=O)[C@@]2(c3cc(C#CC4=CCCCC4)ccc31)[C@H](C(=O)Nc1nc3ccccc3s1)[C@H]1C(=O)O[C@H](c3ccccc3)[C@H](c3ccccc3)N1[C@@H]2c1ccccc1OCCO	TRUE
COC(=O)[C@@]1(Cc2ccc(F)cc2)[C@H]2c3cc(C(=O)N(C)C)n(Cc4nc5ccccc5[nH]4)c3C[C@H]2CN1C(=O)c1ccccc1	FALSE
O=C1OCC=C[C@H]2OC34C=CCN(CCN5CCOCC5)C(=O)[C@H]3N(CCCO)C(=O)[C@@H]4[C@@H]12 (stereo not given in full)	FALSE
CCOC(=O)C[C@H]1[C@H](OC(=O)Cc2ccc3c(c2)OCO3)[C@@H](NC(=O)c2ccc3ccccc3c2)c2cc(OCCCO)ccc2N1C(=O)c1ccccc1	TRUE
COc1cc2c(cc1OC)CN(C(=O)[C@H]1[C@@H]3C(=O)O[C@@H](c4ccccc4)[C@@H](c4ccccc4)N3[C@@H](c3ccc(O)cc3)[C@]13C(=O)Nc1ccc(C#CCNC(N)=O)cc13)CC2	TRUE
CC1CC/C=C\[C@H]2OC34C=CCN(Cn5nnc6ccccc65)C(=O)[C@H]3N(C(CO)C(C)C)C(=O)[C@@H]4C2C(=O)O1 (stereo not given in full)	FALSE
CN(C)CCCNC(=O)[C@@]1(c2ccc([N+](=O)[O-])cc2)CC(=O)N(C2CCCCC2)[C@@H]1c1ccc(CO)cc1I	TRUE
O=C(NCc1ccccc1)[C@@H]1c2ccccc2C(=O)N(CC23CC4CC(CC(C4)C2)C3)[C@H]1c1ccc(CO)cc1	TRUE
C#CCN(CC=C(C)C)[C@H](CO)c1ccccc1	FALSE
COc1ccc(C(=O)Nc2cccc(CN3C(=O)[C@]4(O[C@H](CCO)[C@@H]([Si](C)(C)c5ccc(OC)cc5)[C@@H]4C)c4ccccc43)c2)cc1	TRUE
[N-]=[N+]=NCc1ccccc1C[C@]1(C(=O)NCC(O)CO)N=C(c2ccc(OCCCO)cc2)O[C@H]1c1ccccc1 (stereo not given in full)	FALSE
COc1ccc(CCNC(=O)[C@@]2(Sc3ccc(C)cc3)CC(=O)N(C3CCCCC3)[C@@H]2c2ccc(CO)cc2I)cc1	TRUE
CC[C@@H]1C=C(C(=O)O)[C@H](c2ccco2)N1S(=O)(=O)c1ccc(C)cc1	FALSE
CN(C)CCCC[C@@H]1NC(=O)[C@H]2C[C@@H](C(=O)NCCCCCNC(=O)CS)[C@@H](c3cccc(OCCO)c3)N2C1=O	TRUE
COC(=O)[C@@]1(Cc2ccc(F)cc2)[C@H]2c3cc(C(=O)N4CCCC4)n(Cc4ccc(C)o4)c3C[C@H]2CN1C(=O)c1ccccc1	TRUE
CCCCCC1=C2CNC(CCC)(C(=O)OC)C=C2C(C)C1=O (stereo not given)	FALSE
C[C@@H]1ON(c2cccc(C(=O)OC(C)(C)C)c2)[C@H](c2ccc(Br)cc2)[C@H]1C(=O)N1C(=O)OC[C@H]1Cc1ccccc1	TRUE
COCCOC(=O)N1C(=O)[C@@]2(c3cc(C#CCCO)ccc31)[C@H](C(=O)N1CCc3cc(OC)c(OC)cc3C1)[C@H]1C(=O)O[C@H](c3ccccc3)[C@H](c3ccccc3)N1[C@@H]2c1ccc(O)cc1	TRUE

All values here come from PubChem BioAssay.
